Target: T1, TX1BP3, O14907
T1 sequence (O14907 10-122, limits assumed, looked up): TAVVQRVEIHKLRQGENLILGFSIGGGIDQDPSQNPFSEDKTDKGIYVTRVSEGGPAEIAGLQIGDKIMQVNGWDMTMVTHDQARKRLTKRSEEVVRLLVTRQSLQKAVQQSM
Test: holdup assay
Design: key: below the threshold = too weak to quantify, mostly under pKd 3.1 to 4
Conditions: plain residues with an end cap or a label only (N-terminal biotin on a linker: ahx)

Binder	pKd
HNAFLSVTTV [PDZRN4, Q6ZMN7]	below the threshold
NRKREIFSNF [NHERF2, Q15599]	below the threshold
LSDPSVSTVV [GRIN1, Q05586;Q05586-2]	below the threshold
GYDWGPATDL [TJP3, O95049]	4.39
